# assayed-system: Phosphotyrosine-protein phosphatase PTPB (Mycobacterium tuberculosis)
# method-notes: Inhibition of Mycobacterium tuberculosis PTPB expressed in Escherichia coli BL21 (DE3) in presence of DTT by PAINS assay
assay-endpoint: IC50 (µM)
Could you give me the number in µM? Just the number is fine.

INPUT: Could you share which IC50 value was measured for `O=C(O)C(=O)/C(=C/c1ccccc1C(F)(F)F)c1ccc2ccccc2n1` ?
OUTPUT: 47

* * *

# assayed-system: Phosphotyrosine-protein phosphatase PTPB (Mycobacterium tuberculosis)
# Sequence (whole entry): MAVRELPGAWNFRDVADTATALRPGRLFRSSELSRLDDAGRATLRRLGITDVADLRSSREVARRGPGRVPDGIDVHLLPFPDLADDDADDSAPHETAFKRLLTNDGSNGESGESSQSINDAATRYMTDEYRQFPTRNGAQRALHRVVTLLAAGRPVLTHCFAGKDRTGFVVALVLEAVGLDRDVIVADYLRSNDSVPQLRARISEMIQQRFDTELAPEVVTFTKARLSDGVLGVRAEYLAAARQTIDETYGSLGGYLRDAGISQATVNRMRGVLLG
# method-notes: Inhibition of Mycobacterium tuberculosis PTPB expressed in Escherichia coli BL21 (DE3) assessed as residual activity at 100 uM using p-nitrophenyl phosphate as substrate relative to control
# strict inequality: Activity < 70% yields True, everything else yields False

Examples from the recorded data:
molecule=Cc1onc(C(=O)O)c1-c1cccc(-c2cc(Cl)c(O)c(Cl)c2)c1 class_label=True
molecule=Cc1nc(-c2cccnc2-n2cnc(C(=O)O)c2)no1 class_label=False
molecule=O=C(O)c1cc(-c2cc(Cl)ccc2Cl)[nH]n1 class_label=False
molecule=O=C(O)C(=O)/C(=C/c1ccccc1C(F)(F)F)c1ccc2ccccc2n1 class_label=True
molecule=CC(C)c1nnc(NC(=O)C(=O)O)s1 class_label=False
molecule="O=C1OC(c2ccccc2C(F)(F)F)C(c2ccc3ccccc3n2)=C1O (stereo in doubt; 1-E1)" class_label=True

INPUT: Lab note: confirm whether the reported Activity for this molecule is below 70%, equality not counting. molecule: O=C1OC(c2ccccc2C(F)(F)F)C(c2ccc3ccccc3n2)=C1O (stereo in doubt; 1-E2)
OUTPUT: True

INPUT: Lab note: confirm whether the reported Activity for this molecule is below 70%, equality not counting. molecule: COc1cccc(C2CC(O)=Nc3c(C(=O)O)cn(-c4cccc(F)c4)c32)c1OC (stereo not given)
OUTPUT: False

INPUT: Lab note: confirm whether the reported Activity for this molecule is below 70%, equality not counting. molecule: `CC1(C)Cc2c(sc(NC(=O)C(=O)O)c2C(=O)O)CO1`
OUTPUT: False

* * *

# method-notes: Cytotoxicity against human WI-38 cells assessed as reduction in cell viability at 200 to 0.02 uM measured after 96 hrs
# Assay type: toxicity, cell-based
assay-endpoint: IC50 at 96 h

INPUT: Could you share which IC50 at 96 h value was measured for `O=C(O)C(=O)/C(=C/c1ccccc1C(F)(F)F)c1ccc2ccccc2n1` ?
OUTPUT: > 200 µM

* * *

# method-notes: Cytotoxicity against human MRC5 cells assessed as reduction in cell viability at 200 to 0.02 uM measured after 96 hrs
# Type: toxicity, cell-based
assay-endpoint: IC50 at 96 h

INPUT: Could you share which IC50 at 96 h value was measured for `O=C(O)C(=O)/C(=C/c1ccccc1C(F)(F)F)c1ccc2ccccc2n1` ?
OUTPUT: > 200 µM
